B1: EPB41L3 (parent)
chain: GSKFRYSGRTQAQTRRASALIDRP

# Variants of: B1
# protocol.details: protein stability index of a GFP-peptide fusion (GPS, HEK-293T) (PSI 1-6); higher = more stable;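 further: lentivirally expressed fusions sorted by FACS into six bins by GFP to DsRed ratio, PSI derived from sequencing read proportions per bin multiplied by bin number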
# particulars: c terminus: a fixed tail appended
// label = T if protein stability index is not less than 3, otherwise F

T10K : T
R15E : T
A12L : T

# bool: protein stability index of R5S >= 3 T

# bool: protein stability index of L20E >= 3 T

# bool: protein stability index of G8P >= 3 T

# bool: protein stability index of S2T >= 3 F

# bool: protein stability index of G8Q >= 3 T

# bool: protein stability index of Q11Y >= 3 F

# bool: protein stability index of I21R >= 3 T

# bool: protein stability index of R15F >= 3 F

# bool: protein stability index of S18I >= 3 F
